- ASSAY_PROCEDURE: Metabolic stability in human liver microsomes assessed as compound remaining after 15 mins
- Format: ADME, Microsome
- CONDITION_DESCRIPTION: read-out: Stability
QUANTITY_KIND: remaining at 0.25 h (%)
# unit: % | format: bare number

// worked examples, remaining at 0.25 h included
1) CC(=O)N1CCC(C(=O)N2CCC(N3CCN(C(=O)c4cc(-c5ccccc5)nc(-c5ccc6[nH]cc(C)c6c5)c4)CC3)CC2)CC1
72
2) CC(=O)N1CCC(C(=O)N2CCC(N3CCN(C(=O)c4cc(-c5ccccc5)nc(-c5ccc6[nH]c(C)c(C)c6c5)c4)CC3)CC2)CC1
99
3) CC(=O)N1CCC(C(=O)N2CCC(N3CCN(C(=O)c4cc(-c5ccccc5)nc(-c5ccc6c(ccn6C)c5)c4)CC3)CC2)CC1
85

Please find the next compound below.
Measured remaining at 0.25 h, `CC(=O)N1CCC(C(=O)N2CCC(N3CCN(C(=O)c4cc(-c5ccccc5)nc(-c5ccc6[nH]ccc6c5)c4)CC3)CC2)CC1` : 64

###

- ASSAY_PROCEDURE: Permeability by PAMPA method
- Type: ADME
- CONDITION_DESCRIPTION: read-out: permeability
Each record here notes measured Papp.

// worked examples, Papp included
1. COc1ccc(-c2cc(C(=O)N3CCN(C4CCN(C(=O)C5CCN(C(C)=O)CC5)CC4)CC3)cc(-c3ccc4[nH]ccc4c3)n2)cc1
21.5 ×10⁻⁶ cm/s
2. CC(=O)N1CCC(C(=O)N2CCC(N3CCN(C(=O)c4cc(-c5cccc(F)c5)nc(-c5ccc6[nH]ccc6c5)c4)CC3)CC2)CC1
19.9 ×10⁻⁶ cm/s
3. CC(=O)N1CCC(C(=O)N2CCC(N3CCN(C(=O)c4cc(-c5ccccc5)nc(-c5ccc6[nH]ccc6c5)c4)CC3)CC2)CC1
46.5 ×10⁻⁶ cm/s
4. CC(=O)N1CCC(C(=O)N2CCC(N3CCN(C(=O)c4cc(-c5cccc(C)c5)nc(-c5ccc6[nH]ccc6c5)c4)CC3)CC2)CC1
28.1 ×10⁻⁶ cm/s
5. CC(=O)N1CCC(C(=O)N2CCC(N3CCN(C(=O)c4cc(-c5ccc(F)cc5)nc(-c5ccc6[nH]ccc6c5)c4)CC3)CC2)CC1
44.3 ×10⁻⁶ cm/s

Please find the next compound below.
Measured Papp, `CC(=O)N1CCC(C(=O)N2CCC(N3CCN(C(=O)c4cc(-c5ccc(C)cc5)nc(-c5ccc6[nH]ccc6c5)c4)CC3)CC2)CC1` : 39.8 ×10⁻⁶ cm/s

###

Each record here notes measured IC50.
- TARGET_SYSTEM: Acetyl-CoA carboxylase (Homo sapiens, UniProt Q13085+O00763)
- ASSAY_PROCEDURE: Inhibition of human ACC1/2-mediated malonyl-CoA synthesis
- Assay type: protein assay
# unit: nM | format: bare number

1) CCc1c(C)[nH]c2ccc(-c3cc(C(=O)N4CCN(C5CCN(C(=O)C6CCN(C(C)=O)CC6)CC5)CC4)cc(-c4ccccc4)n3)cc12
169
2) CC(=O)N1CCC(C(=O)N2CCC(N3CCN(C(=O)c4cc(-c5ccccc5)nc(-c5cccc(CO)c5)c4)CC3)CC2)CC1
47
3) CC(=O)N1CCC(C(=O)N2CCC(N3CCN(C(=O)c4cc(-c5ccccc5)nc(-c5ccc(OCCO)cc5)c4)CC3)CC2)CC1
47
4) CC(=O)N1CCC(C(=O)N2CCC(N3CCN(C(=O)c4cc(-c5ccccc5)nc(-c5ccc6cn[nH]c6c5)c4)CC3)CC2)CC1
57
5) COc1ccc(-c2cc(C(=O)N3CCN(C4CCN(C(=O)C5CCN(C(C)=O)CC5)CC4)CC3)cc(-c3ccc4[nH]ccc4c3)n2)cc1
21

Measured IC50, `CC(=O)N1CCC(C(=O)N2CCC(N3CCN(C(=O)c4cc(-c5ccccc5)nc(-c5ccc(CO)cc5)c4)CC3)CC2)CC1` : 42
